Read-out: C-C motif chemokine 2 (Homo sapiens)
ASSAY_NAME: BSK_KF3CT_MCP1: BioMAP Diversity Plus: KF3CT Assay for Monocyte Chemoattractant Protein 1 (MCP1/CCL2) Biomarker Activity (AID 2283073)
EXPERIMENTAL_CONTEXT: primary human keratinocytes with fibroblasts; actives raise or lower the signal
Activity calls are given as the source filed them. How the source made its calls: active means hit-call score of the fitted dose curve at least 0.9, where 1 is the maximum; inactive means score below 0.9.
Respond only with the outcome that fits, drawn from Y = active, N = inactive

Problem: Returns: the outcome recorded for CC(C)(C)c1ccc(O)c(C(C)(C)C)c1 in this assay.
Result: Y

Problem: Returns: the outcome recorded for ClC1=C(Cl)C(Cl)(Cl)C(Cl)=C1Cl in this assay.
Result: Y

Problem: Returns: the outcome recorded for CCCCOCCO in this assay.
Result: N

Problem: Returns: the outcome recorded for c1ccc2cc3c(ccc4ccccc43)cc2c1 in this assay.
Result: N

Problem: Returns: the outcome recorded for CCN(CC)CCNc1ccc(CNC=O)c2sc3ccc(OC)cc3c(=O)c12 in this assay.
Result: Y

Problem: Returns: the outcome recorded for CN1CCC[C@H]1c1cccnc1 in this assay.
Result: N

Problem: Returns: the outcome recorded for COCC(C)OCC(C)O (configuration not stated) in this assay.
Result: N

Problem: Returns: the outcome recorded for NC(=O)N1C(=O)C(C(=O)c2cc(Cl)cs2)c2cc(F)c(Cl)cc21 (configuration not stated) in this assay.
Result: N

Problem: Returns: the outcome recorded for CN(C)C=O in this assay.
Result: N

Problem: Returns: the outcome recorded for c1ccc2c(c1)ccc1ccccc12 in this assay.
Result: N

Problem: Returns: the outcome recorded for CCCCCCCC(=O)O in this assay.
Result: N

Problem: Returns: the outcome recorded for CCCCCCCCCCCCCC[N+](C)(C)C in this assay.
Result: Y

Problem: Returns: the outcome recorded for CCCCCCCCOC(=O)CCCCCCCCC(=O)OCCCCCCCC in this assay.
Result: N

Problem: Returns: the outcome recorded for CC[C@H](C)[C@@H](C(=O)O)n1sc2ccccc2c1=O in this assay.
Result: N

Problem: Returns: the outcome recorded for C#C[C@]1(O)CC[C@H]2[C@@H]3CCC4=CC(=O)CC[C@@H]4[C@H]3CC[C@@]21C in this assay.
Result: N

Problem: Returns: the outcome recorded for CCCCCCCCCCCCc1ccccc1S(=O)(=O)O in this assay.
Result: Y

Problem: Returns: the outcome recorded for C[C@@H]1C[C@H]2[C@@H]3CCC4=CC(=O)C=C[C@]4(C)[C@@]3(F)[C@@H](O)C[C@]2(C)[C@@]1(O)C(=O)COP(=O)(O)O in this assay.
Result: N
